DC50 listing for selected molecules.
- measured.on: RET (658-1114) (Homo sapiens, UniProt P07949)
- Construct: 658-1114; expressed in transfected cells; host or cells: 293T.144 (293T cells, generated in-house)
- Sequence (P07949 658-1114): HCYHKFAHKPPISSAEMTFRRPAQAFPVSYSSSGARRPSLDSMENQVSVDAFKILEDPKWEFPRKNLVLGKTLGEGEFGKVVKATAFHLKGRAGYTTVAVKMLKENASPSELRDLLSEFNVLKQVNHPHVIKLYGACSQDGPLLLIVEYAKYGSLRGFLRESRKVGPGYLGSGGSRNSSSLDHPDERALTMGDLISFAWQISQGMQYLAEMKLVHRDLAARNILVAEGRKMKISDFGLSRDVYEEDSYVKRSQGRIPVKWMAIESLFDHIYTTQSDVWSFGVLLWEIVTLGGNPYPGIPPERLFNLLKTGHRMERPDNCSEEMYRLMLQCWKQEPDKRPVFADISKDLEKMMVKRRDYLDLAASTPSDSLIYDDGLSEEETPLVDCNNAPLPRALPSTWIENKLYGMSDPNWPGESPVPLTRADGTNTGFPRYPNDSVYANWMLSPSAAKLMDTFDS
- experiment: HiBiT-Degradation, RET wild-type degradation assay (Nano-Glo HiBiT Lytic), 293T.144 cells
- Assay type: cell-based
- study.conditions: RET wild-type, 6.0 hours, read-out: HiBiT-Degradation 293T.144 RET (658-1114) 6.0 hours (DC50)

Recorded results for 8 molecules are shown here.
Prompt: Read the entry CCC1(C(=O)NC(C)C)CCN(c2ccc(-c3nc(-c4cnn(C5CCN(C(=O)CC6(O)CCN(c7ccc(N[C@@H]8CCC(=O)NC8=O)cc7F)CC6)CC5)c4)cn4ncc(C#N)c34)cn2)CC1 (single isomer, unassigned) and write its reported DC50.
Response: < 50 nM

Prompt: Read the entry CCC1(C(=O)NC(C)C)CCN(c2ccc(-c3nc(-c4cnn(C5CCN(C(=O)CC6(O)CCN(c7ccc(NC8CCC(=O)NC8=O)cc7)CC6)CC5)c4)cn4ncc(C#N)c34)cn2)CC1 (centres unmarked) and write its reported DC50.
Response: < 50 nM

Prompt: Read the entry N#Cc1cnn2cc(-c3ccc(N4CCN(C(=O)CN5CCC(c6ccc(NC7CCC(=O)NC7=O)cc6)CC5)CC4)cc3)cc(-c3ccc(N4CCN(C(=O)Cc5ccc(F)cn5)CC4)nc3)c12 (centres unmarked) and write its reported DC50.
Response: < 50 nM

Prompt: Read the entry CCC1(C(=O)NC(C)C)CCN(c2ccc(-c3nc(-c4cnn(CC5CCN(C(=O)CC6(O)CCN(c7ccc(NC8CCC(=O)NC8=O)cc7F)CC6)CC5)c4)cn4ncc(C#N)c34)cn2)CC1 (centres unmarked) and write its reported DC50.
Response: < 50 nM

Prompt: Read the entry CCC1(C(=O)NC(C)C)CCN(c2ccc(-c3cc(-c4cnn([C@H]5CC[C@@H](N6CCC(c7ccc(NC8CCC(=O)NC8=O)cc7F)CC6)CC5)c4)cn4ncc(C#N)c34)cn2)CC1 (some centres unmarked) and write its reported DC50.
Response: < 50 nM

Prompt: Read the entry CCC1(C(=O)NC2CCC2)CCN(c2ccc(-c3nc(-c4cnn(C5CCN(C(=O)CC6(O)CCN(c7ccc(NC8CCC(=O)NC8=O)cc7F)CC6)CC5)c4)cn4ncc(C#N)c34)cn2)CC1 (centres unmarked) and write its reported DC50.
Response: < 50 nM

Prompt: Read the entry CCC1(C(=O)NC(C)C)CCN(c2ccc(-c3nc(-c4cnn(C5CCN(C(=O)CC6(O)CCN(c7ccc(N[C@H]8CCC(=O)NC8=O)cc7F)CC6)CC5)c4)cn4ncc(C#N)c34)cn2)CC1 (single isomer, unassigned) and write its reported DC50.
Response: < 50 nM

Prompt: Read the entry N#Cc1cnn2cc(-c3ccc(N4CCN(C(=O)CN5CCC(c6ccc(NC7CCC(=O)NC7=O)cc6F)CC5)CC4)nc3)cc(-c3ccc(N4CCN(Cc5ccccn5)CC4)nc3)c12 (centres unmarked) and write its reported DC50.
Response: < 50 nM

Shift focus to the following entry.
Prompt: Read the entry `CC(C)NC(=O)C1(C)CCN(c2ccc(-c3cc(-c4cnn([C@H]5CC[C@H](CCN6CCC(c7ccc8c(N9CCC(=O)NC9=O)nn(C)c8c7)CC6)CC5)c4)cn4ncc(C#N)c34)cn2)CC1` and write its reported DC50.
Response: < 50 nM

These measurements were taken from patent US12661410B2.
